- target.under.test: Polyadenylate-binding protein 1 (Homo sapiens)
- assay.protocol: inhibitors of PABP1 MLLE–PAM2 peptide binding, primary screen, biochemical, fluorescence polarization, FITC-PAM2, GST-MLLE (AID 588489);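 also: plate controls were DMSO wells with GST-MLLE for no effect and wells lacking GST-MLLE protein for full effect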
- condition.label: at 20 µM
Among all 360,000 compounds or so, about 1,300 (0.36%) were called active. Rule as the data show it: active = inhibition above about 35% (passing the limit was not always enough); inactive = the rest. The list comes from a sample in which actives are over-represented; it also holds close analogues and randomly drawn compounds.
Outcome field: choose from active, inactive

Please review the entries below; each comes with its answer.
In [3]: df
Out[3]:
                         chemical_structure  assigned_category
0         COc1c(F)c(F)c(-c2csc(N)n2)c(F)c1F             active
1  COc1ccc(C(=O)N2CCN(c3ccc(C(C)=O)cc3F)CC2)cc1S(=O)(=O)NC1CC1           inactive
2            Nc1nc(C23CC4CC(CC(C4)C2)C3)cs1           inactive

-- ask What did this assay record as the result for `COc1ccc(NS(=O)(=O)c2ccc(C)c(C(=O)NNC(=O)c3csc(N4CCOCC4)n3)c2)cc1` ?
-- reply inactive

-- ask What did this assay record as the result for `CCOc1ccc(Cn2c(SCCCCC#N)nc3c2c(=O)n(C)c(=O)n3C)cc1OCC` ?
-- reply active

====

Form field: inhibition (one value per entry).
- target.under.test: Polyadenylate-binding protein 1 (Homo sapiens)
- assay.protocol: inhibitors of PABP1 MLLE–PAM2 peptide binding, primary screen, biochemical, fluorescence polarization, FITC-PAM2, GST-MLLE (AID 588489)
- condition.label: at 20 µM, hits give high values
Out of some 360,000 compounds screened, about 1,300 (0.36%) were called active. For the sample, actives were picked, then their nearest neighbours and some compounds at random.

Below, each entry is followed by its recorded inhibition result.
>>> print(df.to_string())
                                   molecule      readout_value
0                   O=C(CC1CCCCC1)NCc1ccco1   2.87% (inactive)
1  Cc1ccc(C2SCC(=O)N2c2ccccc2)cc1 (stereo unspecified)     48.1% (active)
2          O=C(CSc1nnnn1-c1ccccc1)NCc1ccco1  -13.1% (inactive)
3   COC(=O)N/N=C/c1ccc(-c2ccc(Cl)c(Cl)c2)o1   15.1% (inactive)
4  NNC(=O)CNC(c1ccccc1)c1cc(Cl)ccc1NC(=O)c1ccccc1 (stereo unspecified)  -2.37% (inactive)

Turning to the following molecule.
-- ask Request: inhibition, test system Polyadenylate-binding protein 1 (Homo sapiens), entry `O=C(CSC(=S)N1CCCCC1)c1c(F)cccc1F`
-- reply -3.59% (inactive)

====

- target.under.test: Polyadenylate-binding protein 1 (Homo sapiens)
- assay.protocol: inhibitors of PABP1 MLLE–PAM2 peptide binding, primary screen, biochemical, fluorescence polarization, FITC-PAM2, GST-MLLE (AID 588489);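 also: plate controls were DMSO wells with GST-MLLE for no effect and wells lacking GST-MLLE protein for full effect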
- condition.label: at 20 µM
Among all 360,000 compounds or so, about 1,300 (0.36%) were called active. No stated cut-off is given here; in the data, active means inhibition above about 35% (passing the limit was not always enough); inactive means the rest. The full list was thinned out, with actives kept by preference.
Outcome field: choose from true (1) for active, false (0) for inactive

Please review the entries below; each comes with its answer.
                                   molecule  assigned_category
0  CCOC(=O)Cc1cc(=O)[nH]c(/N=C(\N)Nc2ccc(OC)cc2)n1          false (0)
1  CCN(CC)C(=O)COc1coc(CN2CCN(Cc3ccccc3)CC2)cc1=O          false (0)
2             Fc1ccccc1CNC(=S)Nc1ccc(Cl)cc1          false (0)
3        O=C(Cc1ccc(Cl)cc1)NC(=S)Nc1ccccc1O           true (1)
4         CCOc1ccccc1NC(=S)NC(=O)CCc1ccccc1          false (0)
5  COc1ccc(Cl)cc1-n1c(=S)sc2c(=O)n(-c3ccc(F)cc3)c(SCC(=O)O)nc21           true (1)

-- ask What did this assay record as the result for CC(=O)NC(CC(=O)Nc1cccc(S(=O)(=O)N2CCCC2)c1)c1ccccc1 (stereo not given) ?
-- reply false (0)

-- ask What did this assay record as the result for `COCCNC(=O)CSc1nc(N)c(NC(=O)c2ccco2)c(=O)[nH]1` ?
-- reply false (0)

-- ask What did this assay record as the result for `COC(=O)c1ccc(CNC(=O)c2ccc(S(=O)(=O)N3CCCCCC3)cc2)cc1` ?
-- reply false (0)

-- ask What did this assay record as the result for `NS(=O)(=O)c1ccc(CCNC(=O)c2ccc([N+](=O)[O-])cc2[N+](=O)[O-])cc1` ?
-- reply false (0)

====

- target.under.test: Polyadenylate-binding protein 1 (Homo sapiens)
- assay.protocol: inhibitors of PABP1 MLLE–PAM2 peptide binding, primary screen, biochemical, fluorescence polarization, FITC-PAM2, GST-MLLE (AID 588489);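 also: plate controls were DMSO wells with GST-MLLE for no effect and wells lacking GST-MLLE protein for full effect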
- condition.label: at 20 µM, hits give high values
The whole screen tested about 360,000 compounds, of which about 1,300 (0.36%) were called active. Shown is part of a subset that was picked to be rich in actives.
Form field: inhibition (one value per entry).
API: value field is a number in %; no unit string.

>>> print(df.to_string())
                                   compound                         target_under_test  readout_value
0  COC(=O)C1=CN(c2ccc(F)c(F)c2)C=C(C(=O)OC)C1c1ccc([N+](=O)[O-])cc1  Polyadenylate-binding protein 1 (Homo sapiens)           9.34
1                 CC1=NOC(=O)/C1=C\c1ccccc1  Polyadenylate-binding protein 1 (Homo sapiens)           25.2
2  CC(=O)Nc1ccc(S(=O)(=O)N2CCN(c3ccc([N+](=O)[O-])c(NCCN4CCOCC4)c3)CC2)cc1  Polyadenylate-binding protein 1 (Homo sapiens)          -9.63
3  CC(C)N(Cc1nnc(-c2ccccc2Br)o1)C(=O)c1cc(Cl)nc2ccccc12  Polyadenylate-binding protein 1 (Homo sapiens)          -1.33
4  C=C1c2cccc(OC)c2O[C@H](C(=O)OCC)[C@@H]1CCCCCC  Polyadenylate-binding protein 1 (Homo sapiens)          -73.6

-- ask Request: inhibition, test system Polyadenylate-binding protein 1 (Homo sapiens), entry Cc1ccnc(SC2CC(=O)N(c3ccccc3)C2=O)n1 (configuration not stated)
-- reply 38.2

-- ask Request: inhibition, test system Polyadenylate-binding protein 1 (Homo sapiens), entry CCOc1ccccc1N1C(=O)CC(Sc2nccc(C)n2)C1=O (configuration not stated)
-- reply 20.7

-- ask Request: inhibition, test system Polyadenylate-binding protein 1 (Homo sapiens), entry `CC(C)c1cc(C(=O)N/N=C/c2ccoc2)c(O)c(C(C)C)c1`
-- reply -7.21

-- ask Request: inhibition, test system Polyadenylate-binding protein 1 (Homo sapiens), entry COc1ccc(OC)c(C2N(c3ccccn3)C(=O)C3CCCN32)c1 (configuration not stated)
-- reply -4.22

-- ask Request: inhibition, test system Polyadenylate-binding protein 1 (Homo sapiens), entry `Cn1cnnc1SCc1nnc(-c2ccccc2Br)o1`
-- reply -6.49

-- ask Request: inhibition, test system Polyadenylate-binding protein 1 (Homo sapiens), entry Cc1nc(N2CCCC2C(=O)O)c2oc3ccccc3c2n1 (configuration not stated)
-- reply 2.41

-- ask Request: inhibition, test system Polyadenylate-binding protein 1 (Homo sapiens), entry COc1ccc(-c2nc(CS(=O)CC(=O)NCc3ccccc3)c(C)o2)cc1OC (configuration not stated)
-- reply 19.8

-- ask Request: inhibition, test system Polyadenylate-binding protein 1 (Homo sapiens), entry `O=C(CCC(=O)OCc1cccc(C(=O)Oc2ccccc2)c1)Nc1cccc2ccccc12`
-- reply 9.55

-- ask Request: inhibition, test system Polyadenylate-binding protein 1 (Homo sapiens), entry O=C(O)C1CCCN1c1nc(Cl)ccc1[N+](=O)[O-] (configuration not stated)
-- reply 51.9

-- ask Request: inhibition, test system Polyadenylate-binding protein 1 (Homo sapiens), entry COC(=O)C1=C(C(=O)OC)C(c2cc([N+](=O)[O-])ccc2O)c2sc(=O)[nH]c2S1 (configuration not stated)
-- reply 40.3

====

- target.under.test: Polyadenylate-binding protein 1 (Homo sapiens)
- assay.protocol: inhibitors of PABP1 MLLE–PAM2 peptide binding, primary screen, biochemical, fluorescence polarization, FITC-PAM2, GST-MLLE (AID 588489);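 also: plate controls were DMSO wells with GST-MLLE for no effect and wells lacking GST-MLLE protein for full effect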
- condition.label: at 20 µM, hits give high values
In all, about 360,000 compounds went through this assay and about 1,300 (0.36%) were called active. Shown is part of a subset that was picked to be rich in actives.
reported.metric: inhibition

>>> print(df.to_string())
                                   molecule                         target_under_test  reported_metric     readout_value
0  O=C(NCc1cc(F)cc(C(F)(F)F)c1)C1CCC(=O)N(C2CCCC2)C1 (centres undefined)  Polyadenylate-binding protein 1 (Homo sapiens)       inhibition  2.19% (inactive)

-- ask Form field: reported inhibition of `C=CC1=C(C(=O)O)N2C(=O)[C@@H](NC(=O)/C(=N/OCC(=O)O)c3csc(N)n3)[C@H]2SC1`
-- reply 30.8% (inactive)

-- ask Form field: reported inhibition of CCCCCC1CCC(c2nnc(SCC(C)=O)o2)CC1 (centres undefined)
-- reply -9.06% (inactive)

-- ask Form field: reported inhibition of `C=CC1=C(C(=O)O)N2C(=O)[C@@H](NC(=O)/C(=N\OCC(=O)O)c3csc(N)n3)[C@H]2SC1`
-- reply 41% (active)
